experiment: Pharmacokinetics studies in rats; assay type: in vivo; conditions: male, Sprague-Dawley, plasma; rat, IV 2 mg/Kg; read-out: Vz
quantity measured: Vd (L/kg)
Write it as a number; the unit L/kg goes unstated.

# input Tell me Vd reported for O=C1c2c(O)c(=O)ccn2N(Cc2ccc(-c3ccccc3)cc2)[C@@H]2COCCN12
# output 15.1

---

assay: Pharmacokinetics studies in rats; assay type: in vivo; details: male, Sprague-Dawley, plasma; rat, IV 2 mg/Kg
quantity measured: clearance (mL/min/kg)
Express it in mL/min/kg; write the number only.

# input Kindly indicate its recorded clearance. Item: O=C1c2c(O)c(=O)ccn2N(Cc2ccc(-c3ccccc3)cc2)[C@@H]2COCCN12
# output 27.4

---

assay: Pharmacokinetics studies in rats; format: in vivo; details: male, Sprague-Dawley, plasma; rat, PO 10 mg/Kg
quantity measured: AUC(0-inf) (ng·h/mL)
Numeric answer only, unit ng·h/mL assumed.

# input Output measured AUC(0-inf) for this item: O=C1c2c(O)c(=O)ccn2N(Cc2ccc(-c3ccccc3)cc2)[C@@H]2COCCN12
# output 2980

---

assay: Cell viability (MTT) in Vero cells; settings: African green monkey
Field: CC50 at 24 h. Provide a value for each of the molecules that follow.

# input Kindly indicate its recorded CC50 at 24 h. Item: O=C1c2c(O)c(=O)ccn2N([C@@H]2c3ccccc3SCc3c2ccc(F)c3F)[C@@H]2COCCN12 [Baloxavir acid, reference compound]
# output > 100 µM

# input Give CC50 at 24 h for COC(=O)OCOc1c2n(ccc1=O)N([C@@H]1c3ccccc3SCc3c1ccc(F)c3F)[C@@H]1COCCN1C2=O [Baloxavir marboxil, reference compound]
# output > 100 µM

---

target: HSV‐1 pUL15C (Human herpesvirus 1); assay: HSV‐1 pUL15C nuclease inhibition enzymatic assay (32P‐labeled 33‐bp dsDNA substrate); format: biochemical; conditions: 50 µM; read-out: percentage inhibition of pUL15C nuclease activity at the highest concentration tested
Sequence (P04295 471-735): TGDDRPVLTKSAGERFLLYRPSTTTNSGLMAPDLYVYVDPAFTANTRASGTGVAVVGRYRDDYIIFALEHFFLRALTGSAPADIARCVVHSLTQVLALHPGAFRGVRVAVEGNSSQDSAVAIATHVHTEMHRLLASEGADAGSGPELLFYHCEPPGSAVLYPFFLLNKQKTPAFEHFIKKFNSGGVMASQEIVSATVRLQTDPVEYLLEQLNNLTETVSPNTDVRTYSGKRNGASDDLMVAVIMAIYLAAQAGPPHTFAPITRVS
# if value of inhibition at 50 µM reaches 50%, tag TRUE; if it stays below, tag FALSE

# input Can O=C1c2c(O)c(=O)ccn2N(Cc2ccc3ccc4cccc5ccc2c3c45)[C@@H]2COCCN12 be said to have inhibition at 50 µM at or above 50%?
# output TRUE

# input Quick check, inhibition at 50 µM >= 50%? O=C1c2c(O)c(=O)ccn2N(Cc2ccc(-c3ccc(Cl)cc3)cc2)[C@@H]2COCCN12
# output FALSE

# input Is inhibition at 50 µM for O=C(Nc1ccccc1)c1ccc(-c2ccc(CN3[C@@H]4COCCN4C(=O)c4c(O)c(=O)ccn43)cc2)cc1 at or above 50%?
# output FALSE

# input Tell me whether inhibition at 50 µM is at least 50% here: O=C1c2c(O)c(=O)ccn2N(Cc2ccc(-c3ccc([N+](=O)[O-])cc3)cc2)[C@@H]2COCCN12
# output TRUE

---

For each entry below, report its CC50 at 24 h value.
experiment: Cell viability (MTT) in Vero cells; settings: African green monkey, Vero cells

# input Could you please provide reported CC50 at 24 h for O=C1c2c(O)c(=O)ccn2N(Cc2ccc(-c3ccco3)cc2)[C@@H]2COCCN12 ? Thanks!
# output > 100 µM

# input Give CC50 at 24 h for O=C1c2c(O)c(=O)ccn2N(Cc2ccc(C(F)(F)F)cc2)[C@@H]2COCCN12
# output > 100 µM

# input Using the record for O=C1c2c(O)c(=O)ccn2N(Cc2ccc(-c3ccccc3)cc2)[C@@H]2COCCN12 , state its measured CC50 at 24 h.
# output 38.8 µM

# input State, in one line, measured CC50 at 24 h of O=C1c2c(O)c(=O)ccn2N(Cc2ccc(-c3ccc(OC(F)(F)F)cc3)cc2)[C@@H]2COCCN12
# output > 52.8 µM

# input Determine from records and report CC50 at 24 h for Nc1nc2c(ncn2COCCO)c(=O)[nH]1 [Acyclovir (ACV), Acyclovir, reference compound]
# output > 100 µM

# input Query CC50 at 24 h for O=C1c2c(O)c(=O)ccn2N(Cc2ccc(-c3ccc(F)cc3)cc2)[C@@H]2COCCN12
# output > 66.5 µM

# input Please give measured CC50 at 24 h of the following entry: CC(C)c1ccc(O)c(=O)c(O)c1 [β‐thujaplicinol, reference compound]
# output > 100 µM

# input Identify measured CC50 at 24 h corresponding to O=C1c2c(O)c(=O)ccn2N(Cc2ccc(Cl)c(F)c2)[C@@H]2COCCN12
# output > 100 µM
